All values here come from patent US20180171001A1.

# assayedSystem: Env of HIV-1 strain H086.8 (HIV-1)
# assayComment: cell-based or functional assay

>  <binder>
γ59κ3 (antibody, V domains shown) VH: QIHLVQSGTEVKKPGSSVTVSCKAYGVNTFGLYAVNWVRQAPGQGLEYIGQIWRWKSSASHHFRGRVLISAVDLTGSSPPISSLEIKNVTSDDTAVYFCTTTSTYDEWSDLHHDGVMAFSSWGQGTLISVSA VL: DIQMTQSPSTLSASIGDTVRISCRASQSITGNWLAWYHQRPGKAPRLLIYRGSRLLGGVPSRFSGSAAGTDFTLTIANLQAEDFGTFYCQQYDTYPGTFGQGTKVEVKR

>  <neutralization IC50>
> 15 µg/mL

$$$$
>  <binder>
γ52κ3 (antibody, V domains shown) VH: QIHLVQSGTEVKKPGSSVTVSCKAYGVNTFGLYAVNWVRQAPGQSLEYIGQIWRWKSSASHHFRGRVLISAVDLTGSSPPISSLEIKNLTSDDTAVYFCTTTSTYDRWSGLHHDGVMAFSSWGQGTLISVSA VL: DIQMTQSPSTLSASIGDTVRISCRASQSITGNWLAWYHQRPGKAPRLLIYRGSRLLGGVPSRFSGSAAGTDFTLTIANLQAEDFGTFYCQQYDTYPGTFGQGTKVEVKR

>  <neutralization IC50>
> 15 µg/mL

$$$$
>  <binder>
γ8κ3 (antibody, V domains shown) VH: QIHLVQSGTGVKKPGSSVTVSCKAYGVNTFGLYAVNWVRQAPGQGLEYIGQIWRWKSSASHHFRGRVLISAVDLTGSSPPITSLEIKNVTSDDTAVYFCTTTSTYDKWSGLYHDGVMAFSSWGQGTLISVSA VL: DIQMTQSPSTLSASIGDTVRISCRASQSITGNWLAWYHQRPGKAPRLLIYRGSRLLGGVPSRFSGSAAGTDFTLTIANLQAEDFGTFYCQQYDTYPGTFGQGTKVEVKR

>  <neutralization IC50>
> 15 µg/mL

$$$$
